# System: CAKI-1
# Test Protocol: NCI tumour cell line growth inhibition, 48 h
Calls of active or inactive are those of the source. No stated cut-off is given here; in the data, active = GI50 up to about 1.1 µM and inactive = higher.
Possible outcomes: label 1 (active), label 0 (inactive)

Compound	Class Assignment
O=C(N[C@@H](Cc1ccccc1)B(O)O)[C@H](Cc1cccc2ccccc12)NC(=O)N1CCOCC1	label 1
O=[N+]([O-])c1ccc(Cl)cc1N/N=C/c1cccs1	label 0
Cc1ccc(/C=C/C(=O)c2sc(C(N)=S)nc2C)cc1	label 0
O=C1CC2[C@@H](N3CCCC3)CCC(N1Cc1ccccc1)C2(O)O (some centres undefined)	label 0
CCc1n[nH]c(=O)n1N	label 0
Cc1cc2c(c3oc(C4(C)OC4C4OC4C)cc(=O)c13)C(=O)c1c(O)c(C3CC(C)(N(C)C)C(O)C(C)O3)cc(C3CC(N(C)C)C(O)C(C)O3)c1C2=O (centres undefined)	label 1
O=C(O)c1cc2ccccc2c(/N=N/c2ccc(S(=O)(=O)Nc3ncccn3)cc2)c1O	label 0
O=c1c2cn[nH]c2nc2scc(-c3ccc(Cl)cc3)n12	label 0
C[C@]12CC[C@H]3[C@@H](CCC4=C/C(=N/OCCN5CCCCC5)CC[C@@]43C)[C@@H]1CC[C@@H]2O	label 0

====

# Test system: OVCAR-3
# Test Protocol: NCI tumour cell line growth inhibition, 48 h
Active and inactive are the calls of the source. No stated cut-off is given here; in the data, active = GI50 up to about 1.1 µM and inactive = higher.
Possible outcomes: True = active, False = inactive

Compound	Class Assignment
CCCCc1ccc(Nc2nc3ncnc-3c[nH]2)cc1	False
COc1ccc(C(c2ccccc2)(c2ccc(OC)cc2)N2C(=O)NC3C(CCCCC(=O)NCCCCCCOP(OCCC#N)N(C(C)C)C(C)C)SCC32)cc1 (stereo not given)	False
CN(C(=O)c1ccco1)C(=S)N1CCN(c2ccccn2)CC1	False
COc1cc(C(O)C(=O)c2nc3ccc([N+](=O)[O-])cc3nc2O)ccc1O (stereo not given)	False
CCOP(C)(=O)C(Nc1ccc(F)cc1)c1ccc(F)cc1 (stereo not given)	False
COc1cccc(NC(=O)C(C)(C)C)c1C=O	False
COC(=O)C(=O)C(C(=O)C(=O)Nc1ccc([N+](=O)[O-])cc1[N+](=O)[O-])c1nc2ccc([N+](=O)[O-])cc2nc1O (stereo not given)	False
COc1cccc(C2ON=C(c3ccccc3)N2C23CC4CC(CC(C4)C2)C3)c1 (stereo not given)	False
O=C(O)Cc1cccc2c(=O)cc(-c3ccccc3)oc12	False
COc1cc2cnc(-c3ccccc3)cc2cc1OC	False
O=C(NNC(=S)Nc1ccc(Cl)cc1)c1cc(-c2ccccc2)nc2ccccc12	False
COc1cccc(NC(=O)C(=O)C2C=CCS2(=O)=O)c1 (stereo not given)	False
Cc1cccc2nc(-c3ccccc3)cc(=O)n12	False
COc1ccc(-c2c(N)[n+]([O-])c3ccccc3[n+]2[O-])cc1OC	False
Cn1c(=O)c(-c2ccccc2)c(O)c2ccccc21	False
Cn1c2ccccc2c2cc(-c3ccccc3)c3c(c21)C(=O)c1ccccc1C3=O	False
Cc1c(Cl)ccc2c1NC(=O)C2(O)CC(=O)c1ccc2ccccc2c1 (stereo not given)	False
C[Si](C)(C)C1=C2C(=O)c3ccccc3C(=O)C2=C([Si](C)(C)C)[C@@H]2CCCC[C@H]12	False
[O-][n+]1c2cc3c(cc2[n+]([O-])c2c(O)cccc21)CN(CCN1CCOCC1)C3	False
Cc1cc2c(c3oc(C4(C)OC4C4OC4C)cc(=O)c13)C(=O)c1c(O)c(C3CC(C)(N(C)C)C(O)C(C)O3)cc(C3CC(N(C)C)C(O)C(C)O3)c1C2=O (stereo not given)	True

====

# Test system: MDA-N
# Test Protocol: NCI tumour cell line growth inhibition, 48 h
The source made the active and inactive calls. Cut-off read from the data, not from the text of the source: active = GI50 up to about 1.1 µM and inactive = higher. Residues, ends and D or L forms follow the SMILES beside them. *: point of attachment. Fmoc = O=C(OCC1c2ccccc2-c2ccccc21)*; Boc = CC(C)(C)OC(=O)*
Form field: GI50 (one value per entry).
Readout Label: GI50

Compound	Readout Label	Result
CCCCCCCCCCCCCCCCCC(=O)OCC(COC1OC(COP(=O)(O)O)C(O)C(O)C1O)OC(=O)CCCCCCCCCCCCCCCCC (stereo not drawn)	GI50	10.7 µM (inactive)
C=CC(=O)C#Cc1cnc(OC)nc1OC	GI50	16.4 µM (inactive)
C[C@]12CC[C@H]3[C@@H](CCC4=C/C(=N/OCCN5CCCCC5)CC[C@@]43C)[C@@H]1CC[C@@H]2O	GI50	15 µM (inactive)
O=C1NC(Cc2c[nH]c3ccccc23)C(=O)N2C(c3ccccc3)c3[nH]c4ccccc4c3C[C@@H]12 (stereo partly drawn)	GI50	17.6 µM (inactive)
N#C[BH2-][n+]1cn(C2CC(OP(=O)(O)OCC3OC(n4ccc(N)nc4=O)CC3O)C(CO)O2)c2nc(N)[nH]c(=O)c21 (stereo not drawn)	GI50	> 100 µM (inactive)
Cc1cn(C2CC(n3cc(Cn4cc(I)c(=O)[nH]c4=O)nn3)C(CO)O2)c(=O)[nH]c1=O (stereo not drawn)	GI50	> 100 µM (inactive)
CCOC1Oc2ccccc2-c2nc(SC)ncc21 (stereo not drawn)	GI50	64.1 µM (inactive)
CC(C)(C)OC(=O)NCCCCC(NC(=O)C(Cc1c[nH]c2ccccc12)NC(=O)OCC1c2ccccc2-c2ccccc21)C(=O)N1CCCC1C(=O)NCC(N)=O (stereo not drawn) (Fmoc-WK(Boc)PG-NH2; configuration not given here)	GI50	> 100 µM (inactive)

====

Form field: GI50 (one value per entry).
# System: UACC-257
# Test Protocol: NCI tumour cell line growth inhibition, 48 h
Active and inactive are the calls of the source. Rule as the data show it: active = GI50 up to about 1.1 µM and inactive = higher.

Compound	Test Target	GI50
Cc1ccnc2nc(-c3ccc(F)cc3)cc(O)c12	UACC-257	> 92 µM (inactive)
CCCCCCCCCCCCC/C=C/[C@@H](O)[C@H](COC1OC(CO)C(OC2OC(CO)C(O)C(OC3(C(=O)O)CC(O)C(NC(C)=O)C(C(O)C(O)CO)O3)C2O)C(O)C1O)N=[N+]=[N-] (stereo not given in full)	UACC-257	40 µM (inactive)
CC1(C)SC2C(NC(=O)Cc3ccccc3)C(=O)N2C1C(=O)O (stereo not given)	UACC-257	> 100 µM (inactive)
CC(C)(C)C(C#N)(C#N)c1ccc(C(C#N)(C#N)C(C)(C)C)nn1	UACC-257	> 100 µM (inactive)
C[C@@]12C(=O)OC(=O)[C@]1(C)[C@H]1CC[C@@H]2O1	UACC-257	2.65 µM (inactive)
C/C(=C\c1ccccn1)c1ccccn1	UACC-257	> 100 µM (inactive)
O=c1oc2cc(O)ccc2cc1-c1nc2ccccc2s1	UACC-257	22.6 µM (inactive)
COc1ccc2c(c1)CCCN2S(=O)(=O)c1ccccc1[N+](=O)[O-]	UACC-257	71.9 µM (inactive)
CC12CCCCC1=[N+]([O-])C(C)(C)N2O (stereo not given)	UACC-257	> 100 µM (inactive)
CCC1=CC2CN3CCc4c([nH]c5ccccc45)C(C(=O)OC)(C2)C13 (stereo not given)	UACC-257	54.8 µM (inactive)

====

Form field: GI50 (one value per entry).
# Test system: SF-295
# Test Protocol: NCI tumour cell line growth inhibition, 48 h
Active and inactive are the calls of the source. Cut-off read from the data, not from the text of the source: active = GI50 up to about 1.1 µM and inactive = higher.
Readout Label: GI50

Compound	Readout Label	Result
C=C1CC(C)(COc2ccc3c(C)c(Cl)c(=O)oc3c2)OC1=O (configuration not stated)	GI50	6.12 µM (inactive)
CC1=NN(C(=O)CC(=O)Nc2ccc(Cl)cc2)C(=O)C1/N=N\c1ccc(S(=O)(=O)c2ccc(/N=N/C3C(=O)N(C(=O)CC(=O)Nc4ccc(Cl)cc4)N=C3C)cc2)cc1 (configuration not stated)	GI50	> 100 µM (inactive)
C/C(=N\Nc1ccc2ccccc2n1)c1ccccc1O	GI50	8.07 µM (inactive)
C/N=C1\OC2=C3C(c4ccccc4)(O/C(=N/C)N(C)C3(c3ccccc3)OC2=O)N1C (configuration not stated)	GI50	> 100 µM (inactive)
CN/N=C(\C(=O)Nc1ccc([N+](=O)[O-])cc1[N+](=O)[O-])C1NC(=O)NC1=O (configuration not stated)	GI50	> 100 µM (inactive)
CCOP(=O)(OCC)C(c1ccc(F)cc1)N(C(=O)NC(F)(F)F)c1ccc(F)cc1 (configuration not stated)	GI50	> 100 µM (inactive)
c1ccc(-c2c3c(nc4c2CC[C@H]4NC2=NCCN2)[C@@H](NC2=NCCN2)CC3)cc1	GI50	> 100 µM (inactive)
Oc1ccc2c(O)cc(-c3ccccc3)nc2c1	GI50	75 µM (inactive)
COc1ccc(C2SCC(=O)N2c2ccc(-n3c(-c4ccccc4)nc4ccccc4c3=O)cc2)cc1OC (configuration not stated)	GI50	> 100 µM (inactive)
Clc1ccc2ns[s+]c2c1	GI50	0.853 µM (active)
COc1ccc(C(Nc2ncccn2)c2cc3c(cc2O)OCO3)cc1 (configuration not stated)	GI50	65.8 µM (inactive)
O=C(Nc1cc(Cl)c(Cl)cc1Cl)C(=O)C1C(=O)NC(=S)NC1=O	GI50	> 100 µM (inactive)
COC(=O)/C=C(C)/C=C/c1c(C)c(C(C)=O)c(C)n1C	GI50	> 100 µM (inactive)
CC(C)(C)C(C#N)(C#N)c1ccc(C(C#N)(C#N)C(C)(C)C)nn1	GI50	> 100 µM (inactive)
Nc1ncnc2c(C3OC(CO)C(O)C3O)n[nH]c12 (configuration not stated)	GI50	0.427 µM (active)
O=[N+]([O-])c1cc(C(F)(F)F)cc([N+](=O)[O-])c1CCl	GI50	5.78 µM (inactive)
CCCCCCCCCc1cc(O)c(O)cc1CCCCCCCCC	GI50	> 10 µM (inactive)
c1ccc(-c2c(-c3cccs3)[nH]c(-c3cccs3)c2-c2ccccn2)nc1	GI50	20.2 µM (inactive)
COC(=O)C1C(/C=C/c2ccoc2)ON2CCC[C@@H]12 (some centres not stated)	GI50	> 100 µM (inactive)
CN(C)CC1CCCCCCCCCC(CN(C)C)C1=O (configuration not stated)	GI50	> 42.1 µM (inactive)
COc1ccc2c(C)cc(N/N=C/c3ccc(OC)c4ccccc34)nc2c1	GI50	16.8 µM (inactive)
COC(OC)C(C)CC(=O)N(C)C (configuration not stated)	GI50	> 100 µM (inactive)
